# assay target: T1, human BCMA on cells (L-BCMA+, K562-BCMA+, A549-BCMA-1D6) (human, UniProt Q02223 1-184)
# T1 construct: whole, on cells; the cell line of each assay is named under assay; also called L-BCMA-1E6-A4; K562-BCMA-B22D8
# T1 sequence (looked up): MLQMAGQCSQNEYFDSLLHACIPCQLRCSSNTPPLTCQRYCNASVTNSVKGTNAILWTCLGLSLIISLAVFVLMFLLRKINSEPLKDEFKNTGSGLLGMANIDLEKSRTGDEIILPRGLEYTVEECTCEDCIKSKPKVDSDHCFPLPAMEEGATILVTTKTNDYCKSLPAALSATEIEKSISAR
# method notes: FACS, chimeric antibody supernatant, L-BCMA+ cells; also: test concentration or dose not given here
readout label: FACS (MFI)
Quick reminder: number only, in MFI, skip the unit.

chimeric antibody 107A9A4D2VH/VL-1 (antibody, human IgG1, kappa, V domains shown, IgG1,κ chimeric antibody, HEK 293T supernatant; also called 107A9A4D2VH paired with 107A9A4D2VL-1) VH: EVQLQQSGPVLVKPGASVKMSCKASGYTFTDLYMNWLKQSHGKRLEWIGVINPYNGGTSYNQKFKGKATLTVDKSSSTAYMDLNSLTSEDSAVYYCARGDSIYVMDYWGQGTSFTVSS VL: ENVLTQSPAIMSASPGEKVTMTCSASSSVSYMHWYQQKSSTSPKLWIYDTSKLSSGVPGRFSGSGSGKSYSLTISSMEAEDVATYYCFQGSGYPLFTFGSGTKLEIKR ... 42.5
chimeric antibody of hybridoma 105C10F1 (antibody, human IgG1, kappa, V domains shown, IgG1,κ chimeric antibody, HEK 293T supernatant) VH: EVKLLQSGGGLVQPGGSLKLSCAASGIDFSRYWMSWVRRAPGKGLEWIGEINPDSSTINYAPSLKDKFIISRDAAKNTLYLQMSKVRSEDTALYYCATLYYDYDGDYAMDYWGQGTSVTVSS VL: DIVMTPSQKFMSTSVGDRVSVTCKASQNVGTNVAWYQQKPGQSPKALIYSASYRYSGVPDRFTGSGSGTDFTLTISNVQSEDLAEYFCQHYNSYPFTFGSGTKLEIKR ... 1800
chimeric antibody of hybridoma 113B3F12 (antibody, human IgG1, kappa, V domains shown, IgG1,κ chimeric antibody, HEK 293T supernatant) VH: EVQLQQSGPVLVKPGASVKMSCKASGYTFTDYYMNWVKQSHGKSLEWIGVINPYNGGTDYNQKFKGKATLTVDKSSSTAYMELNSLTSEDSAVYYCARRRESYGTSYQGAYFDSWGQGTTLTVSS VL: DIQMTQTTSSLSASLGDRVTISCRASQDISNYLNWYQQKPDGTVKLLIYYTSRLHSGVPSRFSGSGSGTDYSLSISDLEQEDIATYFCQQVITLPWTFGGGTKLEIKR ... 37.5

Field: next binder
Exercise: Data request, read-out FACS (MFI), for chimeric antibody of hybridoma 6G10-1D7 (antibody, human IgG1, kappa, V domains shown, IgG1,κ chimeric antibody, HEK 293T supernatant) VH: EVQLQQSGPELVKPGASMKISCKASDYSFTDYIMTWVKQSHGKNLEWIGLINPYNGGTTYNQKFKDKATFTVDKSSTTAYMDLLSLTSEDSAVYYCARRGITTDYYTMDYWGQGTSVTVSS VL: DIVMTQSQRFMSTSVGDRVSITCKASQSVGTAVAWYQQTPGQFPKLLIYSTSNRYTGVPDRFTGSGSGTDFTLTISNMQSEDLADYFCQQYSTYPLTFGSGTKLELKR
Key: 3470

These measurements were taken from patent US20230181640A1.
